Target: Recombinant human IL-1β (BioLegend 579404) (human, UniProt P01584 117-269)
Assay: cell-based or functional assay
Starred links: 1 amine or outer side, 2 acyl side, 3 side chain; linkers in the order of their positions; H or OH if unused. Non-standard residues stand in square brackets, D forms with d. No end group written: not given here. dProc3CH24Pal = (2R,3S)-3-(4-pyridylmethyl)pyrrolidine-2-carboxylic acid, O=C([C@H]1[C@@H](Cc2ccncc2)CCN1[*:1])[*:2]; ThrOMe = (2S,3R)-2-amino-3-methoxy-butanoic acid, CO[C@H](C)[C@H](N[*:1])C(=O)[*:2]; dPro(4R-(4-pyridylmethyl)) = O=C(O)[C@H]1C[C@@H](Cc2ccncc2)CN1; Ala(piperidin-4-yl) = O=C([C@H](CC1CCN([*:3])CC1)N[*:1])[*:2]; Trp(βS-Me,4-F) = C[C@@H](c1c[nH]c2cccc(F)c12)[C@H](N)C(=O)O; Bip(4'-COOH) = N[C@@H](Cc1ccc(-c2ccc(C(=O)O)cc2)cc1)C(=O)O; Ala(1-bicyclo(1.1.1)pentyl) = N[C@@H](CC12CC(C1)C2)C(=O)O; dPro(4R-Bzl(4-F)) = O=C(O)[C@H]1C[C@@H](Cc2ccc(F)cc2)CN1; Ala(morpholin-4-yl) = N[C@@H](CN1CCOCC1)C(=O)O; Phe(4-COOH) = N[C@@H](Cc1ccc(C(=O)O)cc1)C(=O)O; Pro(cis-4-F) = O=C(O)[C@@H]1C[C@H](F)CN1; Dap(CONH2) = NC(=O)NC[C@H](N)C(=O)O; d(αMeD) = C[C@@](N)(CC(=O)O)C(=O)O; 4Pal = N[C@@H](Cc1ccncc1)C(=O)O; Dab = NCC[C@H](N)C(=O)O; Aib = CC(C)(N)C(=O)O
Below: a set of entries, each annotated with reported MRC5 IC50.
# number only, unit nM dropped from output

Look over these answered cases.
- [Bip(4'-COOH)][Ala(1-bicyclo(1.1.1)pentyl)][Phe(4-COOH)]G[Pro(cis-4-F)][Trp(βS-Me,4-F)][Aib]SW[Aib][Ala(morpholin-4-yl)]QSG[dPro(4R-(4-pyridylmethyl))] (lactam (positions not given here); also: macrolactam ring, closure sites not given here) [SEQ ID NO: 179]: 0.029
- [Bip(4'-COOH)][4Pal][Phe(4-COOH)]G[Pro(cis-4-F)][Trp(βS-Me,4-F)][Aib]SW[d(αMeD)][ThrOMe]Q[Dap(CONH2)]G[dProc3CH24Pal] (lactam (positions not given here); also: macrolactam, ring places not given here) [SEQ ID NO: 228]: 0.021

As a next step, examine the binder that follows.
Data request: // Input: cyclo([Bip(4'-COOH)][Ala(1-bicyclo(1.1.1)pentyl)][Phe(4-COOH)]G[Pro(cis-4-F)][Trp(βS-Me,4-F)][Aib]SW[Aib][Ala(piperidin-4-yl)]Q[Dab]G[dPro(4R-Bzl(4-F))]) (ring closure inferred) [SEQ ID NO: 169] . Output its MRC5 IC50 only.
Data returned: 0.019

# credit: patent US20260242419A1
